# System: SF-539
# Measurement protocol: NCI tumour cell line growth inhibition, 48 h
Activity calls are given as the source filed them. Rule as the data show it: active = GI50 up to about 1.1 µM and inactive = higher.

# Compound, GI50
records = [
    ("COC(=O)c1cc(S(=O)(=O)NC2=NNC(C)CN2)c(S)cc1Cl (configuration not stated)", "40.5 µM (inactive)"),
    ("CN1C(=O)CCC1(O)C1C=CC=CC1 (configuration not stated)", "> 100 µM (inactive)"),
    ("CN(C)c1ccc(-c2nc(-c3cc4c(ccc5ccccc54)oc3=O)cs2)cc1", "> 100 µM (inactive)"),
    ("COc1ccc(/C=C(/C#N)C(N)=O)c(OC)c1", "> 100 µM (inactive)"),
    ("CCOC(=O)/C(=C\\c1ccccc1)C(=O)CCN1CCOCC1", "7.26 µM (inactive)"),
    ("C1CCC2C(C1)CCCC2NC1=NCCO1 (configuration not stated)", "> 100 µM (inactive)"),
    ("COc1ccc(CNc2nc(NCc3ccc(OC)cc3)nc(Nc3ccccc3)n2)cc1", "14.2 µM (inactive)"),
    ("N#CC(c1ccccc1)N(CCc1ccccc1)C(=O)c1ccccc1 (configuration not stated)", "31.3 µM (inactive)"),
    ("NNc1cnn(-c2ccccc2)c(=O)c1Cl", "> 100 µM (inactive)"),
    ("COc1cccc(C2c3cc4c(cc3OC(NNC(N)=O)C2C)OCO4)c1OC (configuration not stated)", "15.4 µM (inactive)"),
    ("CC1=NN2CCC(=O)N=C2S1", "> 100 µM (inactive)"),
    ("CCCS(=O)(=O)/C(=C(\\c1ccc(Br)cc1)S(=O)(=O)CCC)c1ccc(Br)cc1", "> 10 µM (inactive)"),
]
